B1: OR4K15 (parent)
chain: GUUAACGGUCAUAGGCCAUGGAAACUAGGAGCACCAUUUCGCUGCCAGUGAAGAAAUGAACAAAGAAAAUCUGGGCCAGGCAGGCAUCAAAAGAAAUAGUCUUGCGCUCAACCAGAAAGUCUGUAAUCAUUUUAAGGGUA

# Variants of: B1
# protocol.notes: self-cleavage, relative activity (ratio to wild type); higher = more cleavage; in vitro, sequencing; the parent is a self-cleaving ribozyme

residue.sequence: GUUAACGGUCAUAGGCCAUGGAGGCUAGGAGCACCAUUUCGCUGCCAGUGAAGAAAUGAACAAAGAAAAUCUGGGCCAGGCAGGCAUCAAAAGAAAUAGUCUUGCGCUCAACCAGAAAGUCUGUAAUCAUUUUAAGGGUA
self-cleavage: 1.03
--
residue.sequence: GUUAACGGUCAUAGGCCAUGGAAACUAGGAGCACCAUUUCGCUGCCAGUGAAGAAAUGAACAAAGAUAAUCUGGGCCAGGCAGGCAUCAAAAGAAAUAGUCUUGCGCUCAACCAGAAAGUCUGUAAUCAUCUUAAGGGUA
self-cleavage: 2.18
--
residue.sequence: GUUAACGGUCAUAGGCCAUGGAAACUAGGAGCACCAUUUCGCUGCCAGUGAAGAAAUGAACAAAGAAAAUCUGGGCCAGGCAGGCAUCAAGAGAAAUAGUCUUGCGCUCAACCUGAAAGUCUGUAAUCAUUUUAAGGGUA
self-cleavage: 0.03
--
residue.sequence: GUUAACGGUCAUAGGCCAUGGAAACUAGGAGCACCAUUUCGCUGCCAAUGAAGAAAUGAACAAAGAAAAUCUGGGCCAGGCAGGCAUCAAAAGAAAUAGUCUUGCGCUCAACCAGAAAGUCUGUAAUCAUUUUAAGGGUA
self-cleavage: 1.44
--
residue.sequence: GUUAACGGUCGUAGGCCAUGGAAACUAGGAGCACCAUUUCGCUGCCGGUGAAGAAAUGAACAAAGAAAAUCUGGGCCAGGCAGGCAUCAAAAGAAAUAGUCUUGCGCUCAACCAGAAAGUCUGUAAUCAUUUUAAGGGUA
self-cleavage: 1.27
--
residue.sequence: GUUAACGGUCAUAGGCCAUGGAAACUAGGAGCACCAUUUCGCUGCCAGUGAAGAAAUGAACAAAGAAAAUCUGGGCCAGGCAGGCAUCAAAAGAAAUAGUCUUGCGCUCAACUAGAAAGCCUGUAAUCAUUUUAAGGGUA
self-cleavage: 0.04
--
residue.sequence: GUUAACGGUCAUAGGCCAUGGAAACUAGGAGCACCAUUACGCUGCCAGUGAAGAAAUGAACAAAGAACAUCUGGGCCAGGCAGGCAUCAAAAGAAAUAGUCUUGCGCUCAACCAGAAAGUCUGUAAUCAUUUUAAGGGUA
self-cleavage: 1.75
--
residue.sequence: GUUAACGGUUAUAGGCCAUGGAAACUAGGAGCACCAUUUCGCUGCCAGUGAAGAAAUGAACAAAGAAAAUCUGGGCCAGGCAGGCAUCAAAAGAAAUAGUCUUGCGCCCAACCAGAAAGUCUGUAAUCAUUUUAAGGGUA
self-cleavage: 0.06
--
residue.sequence: GUUAACGGUCAUAGGCCAUGGAAACUAGGAGCACCAUUUCGCUGCCAGUGCAGAAAUGAACAAAGAAAAUCAGGGCCAGGCAGGCAUCAAAAGAAAUAGUCUUGCGCUCAACCAGAAAGUCUGUAAUCAUUUUAAGGGUA
self-cleavage: 0.19
--
residue.sequence: GUUAACGGUCAUAGGCCAUGGAAACUAAGAGCACCAUUCCGCUGCCAGUGAAGAAAUGAACAAAGAAAAUCUGGGCCAGGCAGGCAUCAAAAGAAAUAGUCUUGCGCUCAACCAGAAAGUCUGUAAUCAUUUUAAGGGUA
self-cleavage: 2.09
--
residue.sequence: GUUAACGGUCAUAGGCCAUGGAAACUAGGAGUACCAUUUCGCUGCCAGUGAAGAAAUGAACAAAGAAAAUCUGGGCCAGGCAGGCAUCAAAAGAGAUAGUCUUGCGCUCAACCAGAAAGUCUGUAAUCAUUUUAAGGGUA
self-cleavage: 2.11
